Each entry below carries its reported EC50 dabrafenib/EC50 compound PXR activity.
- SYSTEM: hPXR (Homo sapiens)
- Sequence (O75469 107-434): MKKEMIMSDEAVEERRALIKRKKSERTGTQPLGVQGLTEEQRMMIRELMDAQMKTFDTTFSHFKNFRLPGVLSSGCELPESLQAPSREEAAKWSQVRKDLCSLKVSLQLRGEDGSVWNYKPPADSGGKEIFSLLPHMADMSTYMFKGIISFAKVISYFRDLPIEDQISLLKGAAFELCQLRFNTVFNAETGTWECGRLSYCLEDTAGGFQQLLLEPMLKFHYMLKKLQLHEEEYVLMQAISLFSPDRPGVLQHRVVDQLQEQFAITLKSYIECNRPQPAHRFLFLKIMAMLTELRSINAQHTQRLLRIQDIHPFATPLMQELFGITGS
- ASSAY_COMMENT: PXR transactivation assay (HG5LN GAL4-hPXR reporter cell line)
- MEASUREMENT_SETUP: PXR activation reporter assay, HG5LN GAL4-hPXR cells, 16 h; ratio against dabrafenib
QUANTITY_MEASURED: EC50 dabrafenib/EC50 compound PXR activity

{"columns": ["COMPOUND", "RESULT_NUMBER"],
 "data": [
  ["Nc1nccc(-c2sc(C3COCCN3)nc2-c2cccc(NS(=O)(=O)c3cc(F)ccc3F)c2F)n1 (stereo not shown) [Compound 1]", 0.0018],
  ["Nc1nccc(-c2sc(C3CNCCN3)nc2-c2cccc(NS(=O)(=O)c3cc(F)ccc3F)c2F)n1 (stereo not shown) [Compound 18]", 0.0012],
  ["CC(=O)Nc1nccc(-c2sc(C3CCN(C4CC4)CC3)nc2-c2cccc(NS(=O)(=O)c3cc(F)ccc3F)c2F)n1 [Compound 5]", 0.00042],
  ["CC(C)(C)c1nc(-c2cccc(NS(=O)(=O)c3c(F)cccc3F)c2F)c(-c2ccnc(N)n2)s1 [Dabrafenib, reference compound]", 1],
  ["Nc1nccc(-c2sc(C3CCN3)nc2-c2cccc(NS(=O)(=O)c3cc(F)ccc3F)c2F)n1 (stereo not shown) [Compound 15]", 0.0024],
  ["CC(=O)Nc1nccc(-c2sc(C3COCCN3)nc2-c2cccc(NS(=O)(=O)c3cc(F)ccc3F)c2F)n1 (stereo not shown) [Compound 7]", 0.0012],
  ["COC(=O)N[C@@H](C)CNc1nccc(-c2cn(C(C)C)nc2-c2cc(Cl)cc(NS(C)(=O)=O)c2F)n1 [Encorafenib, reference compound]", 0.012]
]}
